src = paper PMC5148695

Target: α4β3δ GABAA receptor (Homo sapiens, UniProt P28472+P48169)
Sequence (P48169 36-554): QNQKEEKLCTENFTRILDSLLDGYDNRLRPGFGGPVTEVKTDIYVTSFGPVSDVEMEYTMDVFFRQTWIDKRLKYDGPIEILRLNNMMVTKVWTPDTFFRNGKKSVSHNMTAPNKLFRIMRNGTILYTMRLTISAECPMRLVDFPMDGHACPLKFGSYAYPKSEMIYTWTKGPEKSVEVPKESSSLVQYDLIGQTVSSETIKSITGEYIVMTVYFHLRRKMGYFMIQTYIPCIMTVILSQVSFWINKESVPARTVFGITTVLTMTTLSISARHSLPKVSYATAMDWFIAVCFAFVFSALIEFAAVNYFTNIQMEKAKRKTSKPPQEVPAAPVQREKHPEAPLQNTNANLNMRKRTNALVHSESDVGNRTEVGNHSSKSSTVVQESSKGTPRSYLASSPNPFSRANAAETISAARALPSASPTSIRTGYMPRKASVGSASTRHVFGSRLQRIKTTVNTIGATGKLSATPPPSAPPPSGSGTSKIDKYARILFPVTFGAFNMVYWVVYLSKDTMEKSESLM
Sequence (P28472 26-473): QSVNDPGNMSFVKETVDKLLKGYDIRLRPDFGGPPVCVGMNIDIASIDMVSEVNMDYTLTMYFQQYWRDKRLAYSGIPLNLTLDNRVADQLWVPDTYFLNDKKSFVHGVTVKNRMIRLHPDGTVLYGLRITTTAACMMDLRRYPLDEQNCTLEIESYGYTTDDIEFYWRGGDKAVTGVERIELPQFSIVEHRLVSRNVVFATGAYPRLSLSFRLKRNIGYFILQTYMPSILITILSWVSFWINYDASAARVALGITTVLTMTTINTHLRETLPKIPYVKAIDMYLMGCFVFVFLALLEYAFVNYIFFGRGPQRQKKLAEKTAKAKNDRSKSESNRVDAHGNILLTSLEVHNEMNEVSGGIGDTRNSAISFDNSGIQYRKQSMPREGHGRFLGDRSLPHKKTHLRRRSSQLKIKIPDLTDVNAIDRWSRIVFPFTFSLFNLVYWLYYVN
Sequence (O14764 25-452 partner): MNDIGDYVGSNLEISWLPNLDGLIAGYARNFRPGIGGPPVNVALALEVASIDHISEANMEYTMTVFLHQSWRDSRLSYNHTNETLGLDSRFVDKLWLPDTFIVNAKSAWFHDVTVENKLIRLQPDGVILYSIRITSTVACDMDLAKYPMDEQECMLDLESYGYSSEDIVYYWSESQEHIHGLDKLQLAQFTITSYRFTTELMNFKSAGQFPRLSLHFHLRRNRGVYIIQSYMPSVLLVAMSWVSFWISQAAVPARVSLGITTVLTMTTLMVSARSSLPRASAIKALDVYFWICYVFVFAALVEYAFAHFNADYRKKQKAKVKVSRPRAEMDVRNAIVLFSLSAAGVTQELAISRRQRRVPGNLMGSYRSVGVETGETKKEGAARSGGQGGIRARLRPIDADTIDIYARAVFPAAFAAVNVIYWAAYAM
Assay: whole-cell patch clamp, potentiation of GABA EC20 current

- compound: "CC(=O)[C@H]1CC[C@H]2[C@@H]3CC[C@H]4C[C@H](O)CC[C@]4(C)[C@H]3CC[C@]12C [ALLO]"
  measured-on: "α4β3δ GABAA receptor (Homo sapiens, UniProt P28472+P48169)"
  measure-unit: "nM"
  EC50: 57
